System: CP335
testName: qHTS profiling for inhibitors of Plasmodium falciparum proliferation (AID 504749); further: nearly all actives have a fitted effect of over 60% in size
particulars: P. falciparum in erythrocytes, SYBR Green DNA, 72 h; series mostly up to 28.7 µM
Results filed as inconclusive are left out. Activity calls are given as the source filed them. The call rests on the fitted dose curve; in most records, active means well fitted inhibition curve with a large enough effect; inconclusive means small, poorly fitted or top-dose-only effect; inactive means flat fitted curve, though single readings scatter.
readoutLabel: outcome

Cc1cc(O)ccc1Cl: inactive
CCCN1CCC[C@H](c2cccc(O)c2)C1: inactive
COC(=O)c1cncn1C(C)c1ccccc1 (configuration not stated): inactive
C1CCC(NC2CCCCC2)CC1: inactive
NC(=O)CN1CC(O)CC1=O (configuration not stated): inactive
CC[N+]1(CCOC(=O)C(O)(c2ccccc2)c2ccccc2)CCCCC1: inactive

From here, focus on the item given below.
Req: Would you mind telling me what outcome value was observed for O=C(O)C(Cl)Cl ?
Resp: inactive
